# measured.on: EGFR L858R/T790M/C797S (BaF3-LTC cells) (Homo sapiens, UniProt P00533, C797S/L858R/T790M)
# Construct: expressed in transfected cells; host or cells: BaF3
# Sequence (P00533 25-1210 T790M/C797S/L858R): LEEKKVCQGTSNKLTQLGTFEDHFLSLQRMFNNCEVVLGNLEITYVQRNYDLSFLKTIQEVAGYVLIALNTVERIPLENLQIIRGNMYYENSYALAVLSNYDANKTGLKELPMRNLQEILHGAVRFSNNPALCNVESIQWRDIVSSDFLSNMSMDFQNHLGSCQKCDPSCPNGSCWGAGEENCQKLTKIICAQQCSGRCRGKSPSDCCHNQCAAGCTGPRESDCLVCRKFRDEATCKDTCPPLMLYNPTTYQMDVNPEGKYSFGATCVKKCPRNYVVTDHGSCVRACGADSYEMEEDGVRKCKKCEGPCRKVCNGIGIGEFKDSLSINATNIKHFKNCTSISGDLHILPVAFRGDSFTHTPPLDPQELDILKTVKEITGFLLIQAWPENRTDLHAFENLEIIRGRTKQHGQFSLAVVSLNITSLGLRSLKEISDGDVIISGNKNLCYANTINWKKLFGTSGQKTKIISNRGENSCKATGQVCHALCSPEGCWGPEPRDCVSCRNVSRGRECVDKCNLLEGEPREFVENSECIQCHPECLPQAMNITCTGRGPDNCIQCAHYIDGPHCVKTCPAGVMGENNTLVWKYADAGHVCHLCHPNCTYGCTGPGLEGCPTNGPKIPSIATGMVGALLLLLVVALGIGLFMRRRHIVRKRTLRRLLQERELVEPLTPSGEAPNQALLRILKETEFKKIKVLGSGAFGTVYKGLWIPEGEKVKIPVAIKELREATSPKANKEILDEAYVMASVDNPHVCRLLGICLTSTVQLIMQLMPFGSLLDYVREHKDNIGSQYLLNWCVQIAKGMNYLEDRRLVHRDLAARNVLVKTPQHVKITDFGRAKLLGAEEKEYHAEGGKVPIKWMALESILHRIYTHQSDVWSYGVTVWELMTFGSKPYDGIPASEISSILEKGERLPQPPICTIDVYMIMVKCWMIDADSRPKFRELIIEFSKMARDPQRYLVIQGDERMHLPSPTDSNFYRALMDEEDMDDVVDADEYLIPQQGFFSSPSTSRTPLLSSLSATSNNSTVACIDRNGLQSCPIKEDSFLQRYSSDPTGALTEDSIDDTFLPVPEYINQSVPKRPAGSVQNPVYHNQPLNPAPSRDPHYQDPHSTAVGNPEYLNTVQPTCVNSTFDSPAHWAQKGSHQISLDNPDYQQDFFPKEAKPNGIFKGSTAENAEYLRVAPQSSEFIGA
# assay.method.text: EGFR degradation HTRF assay, BaF3-LTC cells
# Type: cell-based
# details: BaF3-LTC, 16h treatment; read-out: LTC DC50
quantity: DC50 (nM)

Known results for compounds:
[[record]]
compound = "CCc1cc(Nc2ncc(Br)c(Nc3ccc4nccnc4c3P(C)(C)=O)n2)c(OC)cc1N1CCC(N2CCN(C(=O)C3CCN(c4ccc5nn(C6CCC(=O)NC6=O)cc5c4)CC3)CC2)CC1 (stereo not shown) [Example 308]"
measured_on = "EGFR L858R/T790M/C797S (BaF3-LTC cells) (Homo sapiens, UniProt P00533, C797S/L858R/T790M)"
numeric_value = 15.6

[[record]]
compound = "CCc1cc(Nc2ncc(Br)c(Nc3ccc4scnc4c3P(C)(C)=O)n2)c(OC)cc1N1CCC(N2CCN(CCc3cc(F)c(C4CCC(=O)NC4=O)c(F)c3)CC2)CC1 (stereo not shown) [Example 206]"
measured_on = "EGFR L858R/T790M/C797S (BaF3-LTC cells) (Homo sapiens, UniProt P00533, C797S/L858R/T790M)"
numeric_value = 20.9

[[record]]
compound = "CCc1cc(Nc2ncc(Br)c(Nc3ccc4cc(C)ncc4c3P(C)(C)=O)n2)c(OC)cc1N1CCC(N2CCN(CCc3cc(F)c(C4CCC(=O)NC4=O)c(F)c3)CC2)CC1 (stereo not shown) [Example 200]"
measured_on = "EGFR L858R/T790M/C797S (BaF3-LTC cells) (Homo sapiens, UniProt P00533, C797S/L858R/T790M)"
numeric_value = 11.1

[[record]]
compound = "CCc1cc(Nc2ncc(Br)c(Nc3ccc4nc(C)ccc4c3P(C)(C)=O)n2)c(OC)cc1N1CCC(N2CCN(CCc3cc(F)c(C4CCC(=O)NC4=O)c(F)c3)CC2)CC1 (stereo not shown) [Example 314]"
measured_on = "EGFR L858R/T790M/C797S (BaF3-LTC cells) (Homo sapiens, UniProt P00533, C797S/L858R/T790M)"
numeric_value = 6.5

[[record]]
compound = "COc1cc(N2CCN(C3CN(CCC4CCN(c5cc(F)c(C6CCC(=O)NC6=O)c(F)c5)CC4)C3)CC2)c(C)cc1Nc1ncc(Br)c(Nc2ccc3nccnc3c2P(C)(C)=O)n1 (stereo not shown) [Example 204]"
measured_on = "EGFR L858R/T790M/C797S (BaF3-LTC cells) (Homo sapiens, UniProt P00533, C797S/L858R/T790M)"
numeric_value = 31

[[record]]
compound = "CCc1cc(Nc2ncc(Br)c(Nc3ccc4nccnc4c3P(C)(C)=O)n2)c(OC)cc1N1CCC(N2CCN(CCc3ccc(C4(C)CCC(=O)NC4=O)cc3)CC2)CC1 (stereo not shown) [Example 280]"
measured_on = "EGFR L858R/T790M/C797S (BaF3-LTC cells) (Homo sapiens, UniProt P00533, C797S/L858R/T790M)"
numeric_value = 248

[[record]]
compound = "CCc1cc(Nc2ncc(Br)c(Nc3ccc4nc(C)ccc4c3P(C)(C)=O)n2)c(OC)cc1N1CCC(N2CCN(C(=O)C3CN(c4ccc5c(c4)C(C)(C)C(=O)N5C4CCC(=O)NC4=O)C3)CC2)CC1 (stereo not shown) [Example 409]"
measured_on = "EGFR L858R/T790M/C797S (BaF3-LTC cells) (Homo sapiens, UniProt P00533, C797S/L858R/T790M)"
numeric_value = 1.46

[[record]]
compound = "CCc1cc(Nc2ncc(Br)c(Nc3ccc4nccnc4c3P(C)(C)=O)n2)c(OC)cc1N1CCC(N2CCN(C(=O)C3CCN(c4cc(F)c(C5CCC(=O)NC5=O)c(F)c4)CC3)CC2)CC1 (stereo not shown) [Example 254]"
measured_on = "EGFR L858R/T790M/C797S (BaF3-LTC cells) (Homo sapiens, UniProt P00533, C797S/L858R/T790M)"
numeric_value = 15.9


A: CCc1cc(Nc2ncc(Br)c(Nc3ccc4nc(C(C)C)ccc4c3P(C)(C)=O)n2)c(OC)cc1N1CCC(N2CCN(CCc3cc(F)c(C4CCC(=O)NC4=O)c(F)c3)CC2)CC1 (stereo not shown) [Example 316]
B: CCc1cc(Nc2ncc(Br)c(Nc3ccc4ncn(C)c(=O)c4c3P(C)(C)=O)n2)c(OC)cc1N1CCC(N2CCN(CCc3cc(F)c(C4CCC(=O)NC4=O)c(F)c3)CC2)CC1 (stereo not shown) [Example 428]
Problem: Of A and B , which carries the smaller reported DC50 figure? Answer by quoting the chosen item's label.
Solution: B
(B: 3.67 nM, A: 48.7 nM)
